# Tested on: Progesterone receptor (Homo sapiens, UniProt P06401)
# Sequence (P06401 whole entry): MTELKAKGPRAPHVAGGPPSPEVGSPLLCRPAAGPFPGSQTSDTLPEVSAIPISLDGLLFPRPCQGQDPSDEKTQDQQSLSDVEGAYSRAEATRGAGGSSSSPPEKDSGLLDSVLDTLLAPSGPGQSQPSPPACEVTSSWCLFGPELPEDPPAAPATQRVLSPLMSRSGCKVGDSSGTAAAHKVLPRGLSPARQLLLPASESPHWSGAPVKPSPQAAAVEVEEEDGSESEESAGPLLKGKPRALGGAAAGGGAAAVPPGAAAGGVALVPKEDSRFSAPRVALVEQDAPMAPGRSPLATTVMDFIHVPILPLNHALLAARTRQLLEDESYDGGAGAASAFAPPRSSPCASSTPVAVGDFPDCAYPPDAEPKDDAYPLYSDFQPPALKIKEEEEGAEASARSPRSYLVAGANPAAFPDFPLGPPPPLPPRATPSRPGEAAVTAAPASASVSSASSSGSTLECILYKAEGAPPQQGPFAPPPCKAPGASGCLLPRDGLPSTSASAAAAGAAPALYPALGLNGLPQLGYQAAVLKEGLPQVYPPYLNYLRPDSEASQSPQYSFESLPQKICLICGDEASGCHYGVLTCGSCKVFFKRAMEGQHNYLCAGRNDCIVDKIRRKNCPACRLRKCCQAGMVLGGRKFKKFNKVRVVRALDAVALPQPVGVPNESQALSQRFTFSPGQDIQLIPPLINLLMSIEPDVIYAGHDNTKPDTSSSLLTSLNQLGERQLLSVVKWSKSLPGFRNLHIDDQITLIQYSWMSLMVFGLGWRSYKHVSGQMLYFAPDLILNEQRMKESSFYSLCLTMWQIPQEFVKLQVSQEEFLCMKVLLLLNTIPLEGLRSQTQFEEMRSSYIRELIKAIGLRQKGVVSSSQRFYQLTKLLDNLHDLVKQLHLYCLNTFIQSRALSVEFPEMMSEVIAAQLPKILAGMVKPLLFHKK
# Run description: Binding affinity to human recombinant progesterone receptor expressed in baculovirus infected Sf9 cells
Reported endpoint: IC50 (nM)

Look over these answered cases.
> print(dat)
                                   compound                                 tested.on  obs.value
1  Cc1noc(=O)c2ccc(NC(=O)C(O)(CC(C)(C)c3cc(F)ccc3O)C(F)(F)F)cc12 (stereo not given)  Progesterone receptor (Homo sapiens, UniProt P06401)       7.94
2  COc1ccc(F)cc1C(C)(C)CC(O)(C(=O)Nc1ccc2c(=O)onc(C)c2c1)C(F)(F)F (stereo not given)  Progesterone receptor (Homo sapiens, UniProt P06401)       12.6

a = COc1ccc(F)cc1C(C)(C)CC(O)(CNc1ccc2c(=O)onc(C)c2c1)C(F)(F)F (stereo not given)
b = COc1ccc(F)cc1C(C)(C)CC(O)(CNc1cccc2ncccc12)C(F)(F)F (stereo not given)
Sort a and b by IC50 descending and give the first. Identify your pick by its label.
b
(b: 1000 nM, a: 15.8 nM)
